Collected IC50 for human HIF-PHD2 (Homo sapiens, UniProt Q9GZT9) across several studies; molecules listed below.
Sequence (Q9GZT9 whole entry): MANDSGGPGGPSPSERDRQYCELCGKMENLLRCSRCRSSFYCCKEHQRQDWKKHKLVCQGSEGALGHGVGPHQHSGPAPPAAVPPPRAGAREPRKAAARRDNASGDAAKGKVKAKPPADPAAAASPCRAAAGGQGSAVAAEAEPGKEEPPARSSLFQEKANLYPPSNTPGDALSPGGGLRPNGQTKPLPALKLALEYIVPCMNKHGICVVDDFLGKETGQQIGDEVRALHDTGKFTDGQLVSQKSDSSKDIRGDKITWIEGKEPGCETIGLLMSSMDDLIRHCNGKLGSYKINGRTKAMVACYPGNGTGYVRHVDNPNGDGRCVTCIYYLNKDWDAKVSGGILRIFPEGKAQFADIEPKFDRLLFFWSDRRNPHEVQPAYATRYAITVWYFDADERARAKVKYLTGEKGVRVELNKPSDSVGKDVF

Here is how some molecules turned out for IC50.
[[record]]
chem_smiles = "O=C(O)CNC(=O)C1=C(O)c2cc(C(F)(F)F)ccc2C2(CCOCC2)C1=O"
measured_parameter = "IC50"
result = "< 100 nM"

[[record]]
chem_smiles = "Cn1c(=O)c(C(=O)NCC(=O)O)c(O)c2ccncc21"
measured_parameter = "IC50"
result = "50 to 100 nM"

[[record]]
chem_smiles = "Cn1c(=O)c(C(=O)NCC(=O)O)c(O)c2cc(Cl)ncc21"
measured_parameter = "IC50"
result = "< 50 nM"


Attention now shifts to the item below.
Enquiry: Retrieve IC50 on human HIF-PHD2 (Homo sapiens, UniProt Q9GZT9); query O=C(O)CNC(=O)c1ncc(C(=O)NC(c2ccc(F)cc2)c2ccc(F)cc2)c(O)n1
Return: 0.5 to 20 nM
